Would you kindly list EC50 for each of these molecules?
# targetOrTestSystem: GPR40 (Homo sapiens, UniProt O14842)
# Sequence (O14842 whole entry): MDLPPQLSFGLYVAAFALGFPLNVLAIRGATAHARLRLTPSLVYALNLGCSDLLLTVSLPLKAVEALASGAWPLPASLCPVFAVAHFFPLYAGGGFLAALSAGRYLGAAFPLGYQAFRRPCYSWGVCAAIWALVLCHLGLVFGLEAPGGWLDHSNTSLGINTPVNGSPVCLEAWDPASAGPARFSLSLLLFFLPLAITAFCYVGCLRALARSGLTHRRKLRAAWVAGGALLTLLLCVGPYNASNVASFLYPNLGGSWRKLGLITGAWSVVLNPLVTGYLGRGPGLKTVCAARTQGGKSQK
# runDescription: Cell-based aequorin assay (CHO cells stably expressing GPR40 and aequorin)
# Parameters: expressed in transfected cells; host or cells: CHO cells stably transfected with GPR40 and aequorin
# measurementContext: activation of human GPR40, CHO cells, 0.01% HSA

Qu. Item under review: COc1ccc(F)c(-c2ccc(COc3cccc([C@@H](CC(=O)O)C4CC4)c3)cc2C(OC)C(C)(C)CO)c1 (single isomer, unassigned) [Example 66.41] . Reported EC50?
Ans. 100 to 1000 nM

Qu. I'd like to know its EC50. The molecule in question is COc1ccc(F)c(-c2ccc(COc3cccc(C(C)CC(=O)O)c3)cc2C2=CCC(C)(C)CC2)c1 (single isomer, unassigned) [Example 64.5]
Ans. 100 to 1000 nM

Qu. Look up EC50: CCCCOc1cc(COc2cccc([C@@H](CC(=O)O)C(C)C)c2)ccc1-c1cc(OC)ccc1F (single isomer, unassigned) [Example 53]
Ans. 1000 to 10000 nM

Qu. Quick one: EC50 of CCC(C)(C)[C@H](OC)c1cc(COc2cccc([C@@H](CC(=O)O)C3CC3)c2)ccc1-c1cc(OC)ccc1F (single isomer, unassigned) [Example 66.62] ?
Ans. 10 to 100 nM

Qu. Which EC50 is reported for this molecule? CCCC(CC(=O)O)c1cccc(OCc2ccc(-c3cc(OC)ccc3F)c(OC3CCCCCC3)c2)c1 (single isomer, unassigned) [Example 67.2]
Ans. 100 to 1000 nM

Qu. I would be grateful if you could share the reported EC50 for CC[C@H](CC(=O)O)c1cccc(OCc2ccc(-c3cccc(OC)c3)c([C@@H]3CCCC3(C)C)c2)c1 (single isomer, unassigned) [Example 78.5] .
Ans. 100 to 1000 nM

Qu. Request the reported EC50 associated with CCCCOc1cc(COc2cccc([C@H](C)CC(=O)O)c2)ccc1-c1cc(OCC)ccc1F (single isomer, unassigned) [Example 23]
Ans. 1000 to 10000 nM

Qu. // returns reported EC50 for input COc1cc(-c2ccc(COc3cccc(C(CC(=O)O)CC4CC4)c3F)cc2C(OC)C(C)(C)C)c(F)cn1 (single isomer, unassigned) [Example 84.9]
Ans. 100 to 1000 nM

Qu. Return reported EC50; argument: COc1ccc(F)c(-c2ccc(COc3cccc([C@H](C)CC(=O)O)c3)cc2OC(C)C)c1 (single isomer, unassigned) [Example 31]
Ans. 100 to 1000 nM

Qu. Requested field: EC50. Item: COc1ccc(F)c(-c2cc(F)c(COc3cccc([C@@H](CC(=O)O)C4CC4)c3)cc2[C@@H]2CCCC2(C)C)c1 (single isomer, unassigned) [Example 66.45]
Ans. 100 to 1000 nM

Qu. Which EC50 reading was recorded for the molecule CCC(CC(=O)O)c1cccc(OCc2ccc(-c3cc(OC)ccc3F)c(C3=CCCC3(C)C)c2)c1 (single isomer, unassigned) [Example 65.1] ?
Ans. 100 to 1000 nM

Qu. Would you kindly share the measured EC50 for COc1cccc(-c2ccc(COc3cccc([C@H](C)CC(=O)O)c3)cc2C(C)(C)C)c1 (single isomer, unassigned) [Example 47] ?
Ans. 100 to 1000 nM

Qu. If you can, please state the reported EC50 value of COc1cccc(-c2ccc(COc3cccc(C(CC(=O)O)CC4CC4)c3)cc2C2CCCC2(C)C)c1 (single isomer, unassigned) [Example 69.10] .
Ans. 10 to 100 nM

Qu. Can you look up the measured EC50 of CCCC(CC(=O)O)c1cccc(OCc2ccc(-c3cc(OC)ccc3F)c(C3CCCC3(C)C)c2)c1 (single isomer, unassigned) [Example 80.3] for me?
Ans. 100 to 1000 nM

Qu. Data request, read-out EC50, for CC1(C)CCC=C1c1cc(COc2cccc([C@@H](CC(=O)O)C3CC3)c2)ccc1-c1cc(O)ccc1F (single isomer, unassigned) [Example 66.14]
Ans. 100 to 1000 nM

Qu. Fill in: EC50 of CCCCOc1cc(COc2cccc([C@H](C)CC(=O)O)c2)ccc1-c1cc(OC)ccc1F (single isomer, unassigned) [Example 5] is ___
Ans. 100 to 1000 nM

Qu. Requested read-out: EC50. Entry: CC1(C)CCC[C@@H]1c1cc(COc2cccc([C@@H](CC(=O)O)C3CC3)c2)ccc1-c1cccc(OC2CC2)c1 (single isomer, unassigned) [Example 66.48]
Ans. 100 to 1000 nM
